Target: Protein kinase C beta type (Homo sapiens) (UniProt P05771);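 note: PKC-beta1 splice variant of the enzyme, figure reported as mean inhibition, measured within the GSK PKIS kinase profiling panel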
Sequence (P05771 2-671 limits assumed): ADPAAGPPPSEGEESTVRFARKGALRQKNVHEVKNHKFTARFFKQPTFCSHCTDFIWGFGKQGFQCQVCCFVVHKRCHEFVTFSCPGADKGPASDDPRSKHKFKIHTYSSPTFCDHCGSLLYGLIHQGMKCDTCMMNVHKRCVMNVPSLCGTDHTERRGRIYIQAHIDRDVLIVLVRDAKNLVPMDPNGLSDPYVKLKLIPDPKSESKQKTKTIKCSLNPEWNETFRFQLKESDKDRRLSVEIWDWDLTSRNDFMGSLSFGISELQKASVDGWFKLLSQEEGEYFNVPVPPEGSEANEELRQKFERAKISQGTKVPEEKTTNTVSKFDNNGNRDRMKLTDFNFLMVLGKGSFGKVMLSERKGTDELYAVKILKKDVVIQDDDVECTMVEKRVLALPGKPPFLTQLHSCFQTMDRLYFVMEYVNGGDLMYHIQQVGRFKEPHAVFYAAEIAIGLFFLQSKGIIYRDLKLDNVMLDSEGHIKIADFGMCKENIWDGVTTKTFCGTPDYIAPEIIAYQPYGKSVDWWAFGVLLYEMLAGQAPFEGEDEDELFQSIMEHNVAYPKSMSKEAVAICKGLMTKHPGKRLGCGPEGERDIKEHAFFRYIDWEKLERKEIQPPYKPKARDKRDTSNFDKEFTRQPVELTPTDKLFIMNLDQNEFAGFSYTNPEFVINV
Details: at 0.1 µM
Description: GSK_PKIS: PKC-beta1 (splice variant) mean inhibition at 0.1 uM [Nanosyn]
As shown below, each of these compounds has a reported inhibition value.
Respond numerically; units are % and should not be typed.

Examples with their reported inhibition follow.
>>> meas_value("Cc1ccc(-c2cc3c(NC(=O)C4CC4)ncnc3o2)cc1")
2.14
>>> meas_value("c1cnn2ncc(-c3ccnc(NCCCN4CCOCC4)n3)c2c1")
2.73
>>> meas_value("CS(=O)(=O)CCNCc1ccc(-c2ccc3ncnc(Nc4ccc(OCc5cccc(C(F)(F)F)c5)cc4)c3c2)o1")
1.32
>>> meas_value("COc1cc(N2CCN(C(C)C)CC2)ccc1Nc1nc(Nc2cccc(F)c2C(=O)O)c2cc[nH]c2n1")
-0.07
>>> meas_value("CC(C)c1ccc(-c2cc(-c3c[nH]nc3-c3ccccn3)ccn2)cc1")
2.16
>>> meas_value("CC1=C(C(=O)Nc2ccc3[nH]ncc3c2)C(c2ccc(F)cc2)N=C(c2ccc(C(F)(F)F)nc2)N1 (centres undefined)")
0.07
>>> meas_value("c1ccc(-c2n[nH]cc2-c2ccnc(-c3ccc(OCCn4ccnc4)cc3)c2)nc1")
0.31
>>> meas_value("NS(=O)(=O)c1ccc(N/N=C2\\C(=O)Nc3ccc(C(=O)NCc4ccncc4)cc32)cc1")
-0.39

Using the record for NC(=O)c1ccc2c(-c3ccnc(NCCCO)n3)c(-c3ccc(F)cc3)nn2c1 , state its measured inhibition. 2.42

Give the reported value of inhibition for this record: Cc1nnc(-c2cccc(-c3ccc(C(=O)NCC4CC4)cc3)c2)o1 2.27

# return recorded inhibition for entry COC(=O)Nc1nc2ccc(Oc3ccc(NC(=O)Nc4cc(C(F)(F)F)ccc4F)cc3)cc2s1 1.64

Kindly indicate its recorded inhibition. Item: Fc1ccc(Nc2nccc(-c3c(-c4ccc(C(F)(F)F)cc4)nn4ncccc34)n2)cc1F -0.08

In one line, give reported inhibition of the entry CS(=O)(=O)Nc1ccc(-c2ccc3c(NC(=O)C4CC4)n[nH]c3c2)cc1 . -0.7

Give the value of inhibition reported for the following: CS(=O)(=O)CCNCc1ccoc1-c1ccc2ncnc(Nc3ccc(OCc4ccccc4)cc3)c2c1 -0.13

---

Biological target: Serine/threonine-protein kinase pim-1 (Homo sapiens);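 note: reported value is the mean inhibition of PIM1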
Details: at 0.1 µM
assay_readout: inhibition
Remember to quote the unit after the number.

Illustrative cases are given below, each with its answer.
>>> meas_value("CN(c1ccc(NC(=O)NCCN2CCOCC2)cc1)c1ccnc(Nc2ccc(CS(C)(=O)=O)cc2)n1")
"0.61%"
>>> meas_value("OCCCNc1nccc(-c2c(-c3ccc(F)cc3)nn3cc(C(F)(F)F)ccc23)n1")
"0.12%"

Provide inhibition, tested on Serine/threonine-protein kinase pim-1 (Homo sapiens), for COc1c(C(N)=O)cc(-c2ccc(Cl)cc2)cc1-c1ccc(S(N)(=O)=O)cc1 . 1.83%

Report value: inhibition, system: Serine/threonine-protein kinase pim-1 (Homo sapiens), molecule: O=C1Nc2ccccc2/C1=C1\CCc2cc(O)ccc21 2.37%

---

Measured inhibition, listed per entry.
Biological target: Receptor tyrosine-protein kinase erbB-2 (Homo sapiens);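 note: each value is the mean percent inhibition of ERBB2 over replicate measurements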
Settings: at 0.1 µM
Give the quantity in %, number only.

>>> meas_value("N#Cc1cccc(Nc2ncc(-c3ccccc3)o2)c1")
2.68
>>> meas_value("CC1=C(C(=O)Nc2ccc3[nH]ncc3c2)C(c2ccc(F)cc2)N=C(c2ccc(C(F)(F)F)nc2)N1 (centres undefined)")
1.68

Answer with the recorded inhibition of CS(=O)(=O)CCNCc1ccc(-c2ccc3ncnc(Nc4ccc(OCc5cccc(C(F)(F)F)c5)cc4)c3c2)o1 only. 4.88

Identify measured inhibition corresponding to CCS(=O)(=O)c1ccc(OC)c(Nc2ncc(-c3cccc(C(C)=O)c3)o2)c1 2.14

---

Molecular target: Receptor tyrosine-protein kinase erbB-4 (Homo sapiens);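 note: each value is a mean percent inhibition of ERBB4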
Conditions: at 1 µM
Reported values of inhibition for individual entries
Field: numeric (%). Do not append units.

Please review the following examples before continuing.
>>> meas_value("c1cnn2ncc(-c3ccnc(NCCCN4CCOCC4)n3)c2c1")
8.49
>>> meas_value("COc1cc(N2CCN(C(C)C)CC2)ccc1Nc1nc(Nc2cccc(F)c2C(=O)O)c2cc[nH]c2n1")
11.2
>>> meas_value("COc1ccc2ncn(-c3cc(O[C@H](C)c4ccccc4C(F)(F)F)c(C(N)=O)s3)c2c1")
3.12
>>> meas_value("O=C(O[C@H]1CN[C@H](C#Cc2cc3ncnc(Nc4ccc5c(ccn5Cc5cc(F)ccc5F)c4)c3s2)C1)N1CCOCC1")
86.3
>>> meas_value("CCS(=O)(=O)c1ccc(OC)c(Nc2ncc(-c3cccc(F)c3)o2)c1")
17.8

Identify measured inhibition associated with Fc1cccc(COc2ccc(Nc3ncncc3C#Cc3ccccc3)cc2Cl)c1 19

Please indicate inhibition recorded for CCN1CCC(C(=O)Nc2n[nH]c3nnc(-c4cccc(F)c4F)cc23)CC1 0.79

---

Below: a set of entries, each annotated with reported inhibition.
Biological target: Ribosomal protein S6 kinase alpha-5 (Homo sapiens) (UniProt O75582);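 note: mean inhibition of MSK1, from screening of the GSK PKIS inhibitor set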
Sequence (O75582 whole entry, looked up): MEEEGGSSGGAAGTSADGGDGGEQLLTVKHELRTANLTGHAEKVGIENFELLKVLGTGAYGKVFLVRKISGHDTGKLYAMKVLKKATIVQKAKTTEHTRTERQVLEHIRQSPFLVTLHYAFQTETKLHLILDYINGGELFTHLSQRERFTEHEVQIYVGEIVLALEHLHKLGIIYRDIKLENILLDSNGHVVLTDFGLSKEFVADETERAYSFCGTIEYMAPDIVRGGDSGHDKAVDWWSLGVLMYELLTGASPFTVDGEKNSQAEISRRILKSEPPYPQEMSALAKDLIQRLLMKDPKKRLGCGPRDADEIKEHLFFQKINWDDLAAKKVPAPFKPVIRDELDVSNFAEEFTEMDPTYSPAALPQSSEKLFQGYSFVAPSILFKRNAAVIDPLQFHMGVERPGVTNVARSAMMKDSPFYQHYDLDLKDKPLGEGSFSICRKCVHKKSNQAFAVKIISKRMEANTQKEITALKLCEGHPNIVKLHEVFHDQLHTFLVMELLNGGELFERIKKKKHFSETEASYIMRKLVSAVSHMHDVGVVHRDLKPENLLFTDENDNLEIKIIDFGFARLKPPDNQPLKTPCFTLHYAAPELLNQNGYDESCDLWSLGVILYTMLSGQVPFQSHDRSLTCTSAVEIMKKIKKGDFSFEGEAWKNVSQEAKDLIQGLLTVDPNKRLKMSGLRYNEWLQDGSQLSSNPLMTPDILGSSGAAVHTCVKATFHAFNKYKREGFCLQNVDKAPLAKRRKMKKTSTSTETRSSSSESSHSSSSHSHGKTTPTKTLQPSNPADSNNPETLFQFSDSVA
Settings: at 1 µM
Reply with just the number (in %).

>>> meas_value("NS(=O)(=O)c1ccc(N/N=C2\\C(=O)Nc3cccc(CCc4ccncc4)c32)cc1")
-0.48

Return inhibition (reported value) for this compound: CN(C)CCNC(=O)Nc1ccc(N(C)c2ccnc(Nc3ccc(CS(C)(=O)=O)cc3)n2)cc1 3.31

Please give measured inhibition of the following entry: N#Cc1cccc(Nc2ncc(-c3ccccc3)o2)c1 2.21

Consider the compound Cn1c(-c2nonc2N)nc2cnccc21 . State its measured inhibition. 72.4

State its inhibition: O=C(O[C@H]1CN[C@H](C#Cc2cc3ncnc(Nc4ccc5c(ccn5Cc5cc(F)ccc5F)c4)c3s2)C1)N1CCOCC1 -0.4

Check the records and state inhibition for O=C(O[C@H]1CN[C@H](C#Cc2cc3ncnc(Nc4ccc5c(cnn5Cc5ccccc5)c4)c3s2)C1)N1CCOCC1 -2.26

Name the recorded inhibition of the compound listed here: CCOc1ccc2c(-c3ccnc(Nc4cc(OC)cc(C(F)(F)F)c4)n3)cnn2n1 2.37

Report inhibition for CCn1c(-c2nonc2N)nc2cncc(C(=O)NCCNC)c21 76.8

Give the reported inhibition for this compound. c1ccc(-c2n[nH]cc2-c2ccnc(-c3ccc(OCCn4ccnc4)cc3)c2)nc1 -0.29

Specify reported inhibition for the compound shown: CC1=C(C(=O)Nc2ccc3[nH]nc(C)c3c2)C(c2ccc(C(F)(F)F)cc2)CC(=O)N1 (stereo not given) 28.8

---

Target: RAF proto-oncogene serine/threonine-protein kinase (Homo sapiens);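 note: values are the mean percent inhibition of CRAF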
Conditions: at 1 µM
assay_readout: inhibition (%)
Write the answer as a number in %, unit excluded.

Return inhibition for the following compound: CS(=O)(=O)Nc1ccc(-c2cc(-c3ccccc3)cc(C(N)=O)c2N)cc1 -4.37

Tell us which inhibition value is on record for COc1cc(N2CCN(C(C)C)CC2)ccc1Nc1nc(Nc2cccc3ncccc23)c2cc[nH]c2n1 10.1

Query inhibition for COc1ccc2ncn(-c3cc(O[C@H](C)c4ccccc4C(F)(F)F)c(C(N)=O)s3)c2c1 0.1

Provide inhibition value for the following compound: CCOc1ccc2c(-c3ccnc(Nc4cc(OC)cc(C(F)(F)F)c4)n3)cnn2n1 -1.65

State, in one line, measured inhibition of Cc1nnc(-c2cccc(-c3ccc(C(=O)NCC4CC4)cc3)c2)o1 1.67

Read the entry COc1ccc(Nc2ncc(-c3ccccc3)o2)cc1OC and write its reported inhibition. 3.96

Annotate the compound O=C(O[C@H]1CN[C@H](C#Cc2cc3ncnc(Nc4ccc(OCc5cccc(F)c5)c(Cl)c4)c3s2)C1)N1CCOCC1 with its measured inhibition. 0.51

Hello, please tell me recorded inhibition for this one: CC(C)c1ccc(-c2cc(-c3c[nH]nc3-c3ccccn3)ccn2)cc1 1.4

---

Biological target: Serine/threonine-protein kinase MARK1 (Homo sapiens)
Details: at 0.1 µM
Description: GSK_PKIS: MARK1 mean inhibition at 0.1 uM [Nanosyn]
In this section, each of the molecules is paired with its reported inhibition.
Answer with a number only, understood to be in %.

Use these answered entries as a reference point.
>>> meas_value("Cc1cc(O)cc(C)c1/C=C/c1cncc(C(=O)OC(C)(C)C)c1")
2.3
>>> meas_value("FC(F)(F)CNc1nccc(-c2cnn3ncccc23)n1")
1.58

Give the reported value of inhibition for this record: COc1ccccc1-c1cc(/C=C2\C(=O)Nc3ncc(Br)cc32)cc(Br)c1O 3.43

Please supply the value of reported inhibition for the item COc1ccc(-c2nn3ncccc3c2-c2ccnc(Nc3ccc(F)c(F)c3)n2)cc1 4.53

Output inhibition of O=C(Nc1n[nH]c2nnc(-c3cccnc3)cc12)C1CC1 -0.14

Give me measured inhibition, please, for this molecule: CC1=C(C(=O)Nc2ccc3[nH]ncc3c2)C(c2ccc(F)cc2)N=C(c2ccc(C(F)(F)F)nc2)N1 (stereo unspecified) 1.66

Note down inhibition recorded for CS(=O)(=O)CCNCc1ccc(-c2ccc3ncnc(Nc4ccc(OCc5ccccc5)cc4)c3c2)o1 3.03

Give the measured inhibition for COc1cc2c(cc1Nc1nc(Nc3cccc(F)c3C(N)=O)c3cc[nH]c3n1)N(C(=O)CN1CCN(C(C)C)CC1)CC2 1.44

Provide inhibition value for the following molecule: Cn1c(-c2nonc2N)nc2cnccc21 3.2

Using known records, supply inhibition for CN(C)CCNC(=O)Nc1ccc(N(C)c2ccnc(Nc3ccc(CS(C)(=O)=O)cc3)n2)cc1 4.47

Input O=C(O[C@H]1CN[C@H](C#Cc2cc3ncnc(Nc4ccc5c(ccn5Cc5cc(F)ccc5F)c4)c3s2)C1)N1CCOCC1 , output reported inhibition. 4.09

Please report inhibition for the following molecule: NS(=O)(=O)c1cccc(N/C=C2\C(=O)Nc3ccccc32)c1 6.31

Tell me inhibition reported for Cc1ccc(-c2cc3c(NC(=O)C4CC4)ncnc3o2)cc1 5.62

Let me know recorded inhibition for CC(C)c1ccc(-c2cc(-c3c[nH]nc3-c3ccccn3)ccn2)cc1 , thanks. 1.23

State, in one line, measured inhibition of CN1CCC(n2cnc(-c3ccc(F)cc3)c2-c2ccnc(NCCO)n2)CC1 3.31

State, in one line, measured inhibition of N#Cc1ccc2c(-c3ccnc(NC4CC4)n3)c(-c3ccc(F)cc3)nn2c1 0.42
